- Tested on: COLO 205
- Assay remarks: Antiproliferative activity against human COLO 205 cells assessed as inhibition of cell viability incubated for 48 hrs by CellTiterGlo assay
- Type: functional, cell-based
- Conditions: COLO 205, 48 h
Readout: IC50 (nM)
The answer is to be given in nM; state only the numeric part.

Request the reported IC50 associated with "C1=N/C2=N/c3ccc(OCCN4CCCC4)c(c3)COC/C=C/COCc3cccc(c3)C(=C1)N2"
2620

---

- Assay remarks: Cytotoxicity against human EPC cells derived from healthy volunteers assessed as inhibition of cell viability incubated for 48 hrs by CellTiterGlo assay
- Assay type: toxicity, cell-based
Readout: IC50 at 48 h (nM)
The answer is to be given in nM; state only the numeric part.

Request the reported IC50 at 48 h associated with "C1=C/COCc2cc(ccc2OCCN2CCCC2)Nc2nccc(n2)-c2cccc(c2)COC/1"
230

---

- Assay remarks: Cytotoxicity against human Erythroid progenitor cells assessed as inhibition of colony growth formation
- Assay type: toxicity, cell-based, Erythroid progenitor cell
Readout: pIC50
Lab note — pIC50 values are minus log10 of concentrations in M.

Request the reported pIC50 associated with C1=C/COCc2cc(ccc2OCCN2CCCC2)Nc2nccc(n2)-c2cccc(c2)COC/1 [PACRITINIB]
7.20
